# Organism: Bos taurus
# measurement description: Selectivity ratio for IC50 of MMP-2 to that of MMP-13
Exercise: state measured Selectivity for each of the compounds provided.
A bare number is all that is needed in reply.

Prompt line: Please list Selectivity recorded for the compound `COc1ccc2oc(C(=O)Nc3ccc(-c4ccc(S(=O)(=O)N[C@H](C(=O)O)C(C)C)cc4)cc3)cc2c1`
Response line: 2.8

Prompt line: Please list Selectivity recorded for the compound `CC(=O)Nc1ccc2oc(C(=O)Nc3ccc(-c4ccc(S(=O)(=O)N[C@H](C(=O)O)C(C)C)cc4)cc3)cc2c1`
Response line: 4.1

Prompt line: Please list Selectivity recorded for the compound `CC(C)[C@H](NS(=O)(=O)c1ccc(-c2ccc(NC(=O)c3cc4cc(NS(C)(=O)=O)ccc4o3)cc2)cc1)C(=O)O`
Response line: 9.1

====

# measurement description: Inhibitory concentration against MMP-3
readout name: IC50 (nM)
Please reply with the bare figure in nM and do not write the unit itself.

Prompt line: Please list IC50 recorded for the compound CC(Oc1cccc2oc(C(=O)Nc3ccc(-c4ccc(S(=O)(=O)N[C@H](C(=O)O)C(C)C)cc4)cc3)cc12)C(=O)O (stereo partly specified)
Response line: 843

====

# Species: Bos taurus
# measurement description: Selectivity ratio for IC50 of MMP-2 to that of MMP-13
Exercise: state measured Selectivity for each of the compounds provided.
A bare number is all that is needed in reply.

Prompt line: Please list Selectivity recorded for the compound `CC(C)[C@H](NS(=O)(=O)c1ccc(-c2ccc(NC(=O)c3cc4cc(Cl)ccc4o3)cc2)cc1)C(=O)O`
Response line: 5.3

Prompt line: Please list Selectivity recorded for the compound `COc1cccc2oc(C(=O)Nc3ccc(-c4ccc(S(=O)(=O)N[C@H](C(=O)O)C(C)C)cc4)cc3)cc12`
Response line: 6.9

Prompt line: Please list Selectivity recorded for the compound `CC(C)[C@H](NS(=O)(=O)c1ccc(-c2ccc(NC(=O)c3cc4cc(NS(=O)(=O)c5ccccc5)ccc4o3)cc2)cc1)C(=O)O`
Response line: 5.6

Prompt line: Please list Selectivity recorded for the compound `CC(C)[C@H](NS(=O)(=O)c1ccc(-c2ccc(NC(=O)c3cc4c(OCc5ccccc5)cccc4o3)cc2)cc1)C(=O)O`
Response line: 18

Prompt line: Please list Selectivity recorded for the compound `COc1cccc2cc(C(=O)Nc3ccc(-c4ccc(S(=O)(=O)N[C@H](C(=O)O)C(C)C)cc4)cc3)oc12`
Response line: 0.6

Prompt line: Please list Selectivity recorded for the compound `CC(C)[C@H](NS(=O)(=O)c1ccc(-c2ccc(NC(=O)c3cc4cc([N+](=O)[O-])ccc4o3)cc2)cc1)C(=O)O`
Response line: 2.8

Prompt line: Please list Selectivity recorded for the compound CC(Oc1cccc2oc(C(=O)Nc3ccc(-c4ccc(S(=O)(=O)N[C@H](C(=O)O)C(C)C)cc4)cc3)cc12)C(=O)O (some centres not stated)
Response line: 107

====

# measurement description: Half-life in rat upon iv administration
# Assay type: ADME, organism-based
# condition parameters: in vivo
readout name: half-life (h)
Please reply with the bare figure in h and do not write the unit itself.

Prompt line: Please list half-life recorded for the molecule `CC(C)[C@H](NS(=O)(=O)c1ccc(-c2ccc(NC(=O)c3cc4ccccc4o3)cc2)cc1)C(=O)O`
Response line: 3.7

====

Exercise: state measured IC50 for each of the molecules provided.
Please reply with the bare figure in µM and do not write the unit itself.

Prompt line: Report value only: IC50, Matrix metalloproteinase-14 (Homo sapiens), `COc1cccc2cc(C(=O)Nc3ccc(-c4ccc(S(=O)(=O)N[C@H](C(=O)O)C(C)C)cc4)cc3)oc12`
Response line: 10.9

Prompt line: Report value only: IC50, Matrix metalloproteinase-14 (Homo sapiens), CC(Oc1cccc2oc(C(=O)Nc3ccc(-c4ccc(S(=O)(=O)N[C@H](C(=O)O)C(C)C)cc4)cc3)cc12)C(=O)O (some centres undefined)
Response line: 20

Prompt line: Report value only: IC50, Matrix metalloproteinase-14 (Homo sapiens), `COc1ccc2oc(C(=O)Nc3ccc(-c4ccc(S(=O)(=O)N[C@H](C(=O)O)C(C)C)cc4)cc3)cc2c1`
Response line: 0.0015

Prompt line: Report value only: IC50, Matrix metalloproteinase-14 (Homo sapiens), `CC(C)[C@H](NS(=O)(=O)c1ccc(-c2ccc(NCc3cc4ccccc4o3)cc2)cc1)C(=O)O`
Response line: 6.6

====

readout name: IC50 (nM)
Please reply with the bare figure in nM and do not write the unit itself.

Prompt line: Report value only: IC50, 72 kDa type IV collagenase (Homo sapiens), `CC(C)[C@H](NS(=O)(=O)c1ccc(-c2ccc(NC(=O)c3cc4cc(Cl)ccc4o3)cc2)cc1)C(=O)O`
Response line: 3.2

Prompt line: Report value only: IC50, 72 kDa type IV collagenase (Homo sapiens), CC(Oc1cccc2oc(C(=O)Nc3ccc(-c4ccc(S(=O)(=O)N[C@H](C(=O)O)C(C)C)cc4)cc3)cc12)C(=O)O (stereo not given in full)
Response line: 1590

Prompt line: Report value only: IC50, 72 kDa type IV collagenase (Homo sapiens), `CC(C)[C@H](NS(=O)(=O)c1ccc(-c2ccc(NCc3cc4ccccc4o3)cc2)cc1)C(=O)O`
Response line: 23.3

Prompt line: Report value only: IC50, 72 kDa type IV collagenase (Homo sapiens), `COc1ccc2oc(C(=O)Nc3ccc(-c4ccc(S(=O)(=O)N[C@H](C(=O)O)C(C)C)cc4)cc3)cc2c1`
Response line: 1.9

Prompt line: Report value only: IC50, 72 kDa type IV collagenase (Homo sapiens), `CC(C)[C@H](NS(=O)(=O)c1ccc(-c2ccc(NC(=O)c3csnn3)cc2)cc1)C(=O)O`
Response line: 2.14

====

Quick record: IC50, Collagenase 3 (Bos taurus).
Please reply with the bare figure in nM and do not write the unit itself.

Prompt line: Please list IC50 recorded for the compound `CC(C)[C@H](NS(=O)(=O)c1ccc(-c2ccc(NCc3cc4ccccc4o3)cc2)cc1)C(=O)O`
Response line: 4.9

Prompt line: Please list IC50 recorded for the compound `COc1cccc2oc(C(=O)Nc3ccc(-c4ccc(S(=O)(=O)N[C@H](C(=O)O)C(C)C)cc4)cc3)cc12`
Response line: 2.33

Prompt line: Please list IC50 recorded for the compound `CC(C)[C@H](NS(=O)(=O)c1ccc(-c2ccc(NC(=O)c3cc4cc(N)ccc4o3)cc2)cc1)C(=O)O`
Response line: 1.5

Prompt line: Please list IC50 recorded for the compound `CC(C)C[C@H](NS(=O)(=O)c1ccc(-c2ccc(NC(=O)c3cc4ccccc4o3)cc2)cc1)C(=O)O`
Response line: 2.19

Prompt line: Please list IC50 recorded for the compound `O=C(Nc1ccc(-c2ccc(S(=O)(=O)N[C@@H](CO)C(=O)O)cc2)cc1)c1cc2ccccc2o1`
Response line: 4.5

Prompt line: Please list IC50 recorded for the compound `O=C(NCCCCN1CCOCC1)c1cc2ccccc2o1`
Response line: 3200

Prompt line: Please list IC50 recorded for the compound `Cc1cc(C)c(N(Cc2ccccc2)S(=O)(=O)c2ccc(OCCNC(=O)c3cc4ccccc4o3)cc2)c(C(=O)NO)c1`
Response line: 10000

====

# measurement description: Oral bioavailability in rat
# Format: ADME, organism-based
# condition parameters: in vivo
readout name: bioavailability (%)
Please reply with the bare figure in % and do not write the unit itself.

Prompt line: Please list bioavailability recorded for the compound `CC(C)[C@H](NS(=O)(=O)c1ccc(-c2ccc(NC(=O)c3cc4ccccc4o3)cc2)cc1)C(=O)O`
Response line: 24
